α-amylase (Homo sapiens): reported IC50 for various molecules.
Sequence (P04746 16-511): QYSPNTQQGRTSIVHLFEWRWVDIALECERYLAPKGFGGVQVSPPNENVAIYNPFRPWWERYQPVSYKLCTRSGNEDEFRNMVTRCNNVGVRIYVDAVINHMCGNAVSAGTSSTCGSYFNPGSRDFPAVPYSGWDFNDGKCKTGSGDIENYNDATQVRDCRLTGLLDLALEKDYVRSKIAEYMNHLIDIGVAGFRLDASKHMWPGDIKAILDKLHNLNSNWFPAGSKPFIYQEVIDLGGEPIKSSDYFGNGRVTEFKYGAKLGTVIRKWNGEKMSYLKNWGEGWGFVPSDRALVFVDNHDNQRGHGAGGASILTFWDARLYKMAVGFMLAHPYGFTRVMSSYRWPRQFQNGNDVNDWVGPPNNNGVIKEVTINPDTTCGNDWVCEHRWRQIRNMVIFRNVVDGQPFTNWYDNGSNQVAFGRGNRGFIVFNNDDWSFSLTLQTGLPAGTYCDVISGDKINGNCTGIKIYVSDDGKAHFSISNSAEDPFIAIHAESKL
Give bare numbers, in µM.

Before answering, review these 4 worked examples.
molecule	target	IC50, µM
O=C(CCl)N1C(=O)S/C(=C/c2ccc3c(c2)OCO3)C1=O [Compound 4]	α-amylase (Homo sapiens)	163
CC(=O)CN1C(=O)SC(=Cc2ccc3c(c2)OCO3)C1=O [Compound 5]	α-amylase (Homo sapiens)	59
O=C(O)CN1C(=O)SC(=Cc2ccc3c(c2)OCO3)C1=O [Compound 6]	α-amylase (Homo sapiens)	33.4
O=C1CSC(=O)N1CC(=O)N1C(=O)SC(=Cc2ccc3c(c2)OCO3)C1=O [Compound 11]	α-amylase (Homo sapiens)	49.2

Here is the next item to consider.
O=C1NC(=O)/C(=C\c2ccc3c(c2)OCO3)S1 [Compound 3] yielded IC50 of 173

Entry source: paper PMC8773338
